ASSAY_SUMMARY: Apparent solubility in organic solvents (visual)
Format: physicochemical
RUN_CONDITIONS: acetone, organic solvent or mixture, thermodynamic from solid
REPORTED_PROPERTY: solubility

[in] # get_value(readout='solubility', item= COc1ccc2c(c1)CCN1Cc3c(ccc(OC)c3OS(=O)(=O)c3cccc(F)c3)C[C@H]21 [Compound 2a] )
[out] 2220 to 3330 µg/mL
